Lab note: pIC50 readings collected with human full length PDE3B (Homo sapiens) for the following molecules.
Sequence (Q13370 whole entry): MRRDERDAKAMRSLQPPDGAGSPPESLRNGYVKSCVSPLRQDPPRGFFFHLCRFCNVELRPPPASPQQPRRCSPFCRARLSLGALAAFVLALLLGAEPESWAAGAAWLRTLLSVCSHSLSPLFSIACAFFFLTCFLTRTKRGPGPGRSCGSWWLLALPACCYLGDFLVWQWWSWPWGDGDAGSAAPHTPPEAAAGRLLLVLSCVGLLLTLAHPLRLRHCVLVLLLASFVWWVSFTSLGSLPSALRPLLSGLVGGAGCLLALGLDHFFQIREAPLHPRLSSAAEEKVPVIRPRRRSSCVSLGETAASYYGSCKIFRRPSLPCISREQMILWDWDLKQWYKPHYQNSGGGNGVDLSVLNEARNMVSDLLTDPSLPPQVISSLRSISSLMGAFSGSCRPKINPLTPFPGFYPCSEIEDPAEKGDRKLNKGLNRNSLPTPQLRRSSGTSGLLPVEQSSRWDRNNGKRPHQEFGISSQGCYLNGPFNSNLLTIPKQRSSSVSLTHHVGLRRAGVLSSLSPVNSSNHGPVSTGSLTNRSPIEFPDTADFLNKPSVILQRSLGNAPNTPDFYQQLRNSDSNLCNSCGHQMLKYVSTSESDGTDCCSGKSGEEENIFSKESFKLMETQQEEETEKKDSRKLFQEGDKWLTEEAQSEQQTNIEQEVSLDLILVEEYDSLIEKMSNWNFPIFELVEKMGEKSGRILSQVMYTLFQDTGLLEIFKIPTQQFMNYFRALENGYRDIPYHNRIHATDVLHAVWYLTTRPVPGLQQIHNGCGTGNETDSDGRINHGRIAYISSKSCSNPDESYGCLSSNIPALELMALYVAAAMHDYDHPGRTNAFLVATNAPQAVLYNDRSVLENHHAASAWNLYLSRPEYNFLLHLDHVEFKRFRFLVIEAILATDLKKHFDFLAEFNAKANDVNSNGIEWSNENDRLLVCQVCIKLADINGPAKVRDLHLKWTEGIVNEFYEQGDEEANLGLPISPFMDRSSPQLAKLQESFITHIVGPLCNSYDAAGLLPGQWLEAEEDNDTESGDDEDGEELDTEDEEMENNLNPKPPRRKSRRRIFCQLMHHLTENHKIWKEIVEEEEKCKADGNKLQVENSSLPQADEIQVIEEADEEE
Give bare numbers, as −log10 of the molar value.

Below, 4 molecules whose answers are already recorded.
COc1ccc(C2=NNC(=O)CC2)cc1Cl :: 6.96
Cc1cc(C2=NNC(=O)CC2)ccc1-c1ccccc1O :: 6.26
Cc1cc(-c2ccc(C3=NNC(=O)CC3)cc2C)ccc1F :: 6.54
Cc1cc(C2=NNC(=O)CC2)ccc1-c1cccnc1 :: 7.17

# input for lookup
Give pIC50 for `O=C1CCC(c2ccc(-c3ccoc3)c(F)c2)=NN1`
6.51

* * *

# System: SK-MEL-3 (melanoma)
# protocol_description: Cell proliferation measurement (Cell Titer Glo), SK-MEL-3
# Type: cell-based
# test_parameters: Homo sapiens, SK-MEL3, SK-MEL-3 cells, 72 h treatment, read-out: Anti-proliferation IC50 SK-MEL-3 (melanoma)
observed_property: IC50 (nM)
Numbers only, in nM.

Cc1cc(C2=NNC(=O)CC2)ccc1-c1ccc(F)c(F)c1F [Example 97] :: 82
O=C1CCC(c2ccc(N3CCC(F)(F)C3)c(C(F)(F)F)c2)=NN1 [Example 22] :: 718
Cc1ccc(-c2ccc(C3=NNC(=O)CC3)cc2F)cn1 [Example 34] :: 9.88

Now consider a different compound.
Give the reported value of IC50 for this record: Cc1ccc(F)cc1-c1ccc(C2=NNC(=O)CC2)cc1F [Example 57]
11.8

// provenance: patent US11897867B2
